B1: ZNF263 (parent)
chain: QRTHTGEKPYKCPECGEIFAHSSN

Variants of: B1
Assay: protein stability index of a GFP-peptide fusion (GPS, HEK-293T) (PSI 1-6); higher = more stable;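 further: lentivirally expressed fusions sorted by FACS into six bins by GFP to DsRed ratio, PSI derived from sequencing read proportions per bin multiplied by bin number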
Settings: c terminus: a fixed tail appended
PROPERTY: protein stability index
Respond using a number only.

Known protein stability index results, listed for orientation:
{"RESIDUE CHANGE": "Q1M", "protein stability index": 2.71}
{"RESIDUE CHANGE": "C12A", "protein stability index": 4.27}
{"RESIDUE CHANGE": "K11G", "protein stability index": 3.54}
{"RESIDUE CHANGE": "P13R", "protein stability index": 2.94}
{"RESIDUE CHANGE": "S22C", "protein stability index": 4.15}
{"RESIDUE CHANGE": "A20T", "protein stability index": 3.11}

Would you kindly look at the next entry?
What measured protein stability index goes with "G16R" ?
3
